Attribution: patent US20230202990A1

- tested-on: human V1a receptor (Homo sapiens, UniProt P37288)
- Construct: expressed in transfected cells; host or cells: HEK293 cells, transiently transfected; cell membranes
- Sequence (P37288 whole entry): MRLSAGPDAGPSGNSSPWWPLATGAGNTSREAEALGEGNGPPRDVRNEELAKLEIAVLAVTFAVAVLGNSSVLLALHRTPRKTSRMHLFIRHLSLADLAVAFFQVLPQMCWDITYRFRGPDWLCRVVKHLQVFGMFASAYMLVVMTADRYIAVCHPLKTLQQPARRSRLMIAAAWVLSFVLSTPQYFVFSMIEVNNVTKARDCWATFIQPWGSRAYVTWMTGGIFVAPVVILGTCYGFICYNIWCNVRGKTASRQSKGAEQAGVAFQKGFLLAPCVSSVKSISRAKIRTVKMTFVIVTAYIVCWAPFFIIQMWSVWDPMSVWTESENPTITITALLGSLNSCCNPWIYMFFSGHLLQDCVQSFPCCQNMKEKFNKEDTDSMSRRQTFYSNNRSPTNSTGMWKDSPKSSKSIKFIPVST
- protocol-text: human V1a receptor binding studies (3H-Vasopressin SPA, HEK293 cell membranes)
- condition: competition with 3H-Vasopressin on membranes of HEK293 cells transiently transfected with human V1a receptor; Ki by Cheng-Prussoff equation; read-out: pKi (hV1a) (converted)
- Description: The human V1a receptor was cloned by RT-PCR from total human liver RNA. The coding sequence was subcloned in an expression vector after sequencing to confirm the identity of the amplified sequence. […] Cell membranes were prepared from HEK293 cells transiently transfected with the expression vector and grown in 20 liter fermenters with the following protocol. […]
Label key: y means Ki under 8 nM; n means Ki of 8 nM or more.

1) C[S+]([O-])Cc1nnc([C@H]2CC[C@H](Oc3ccccn3)CC2)n1-c1ccc(Cl)cc1 (mixture of isomers) [Example 37] | n
2) Cc1ccc(-n2c(C(F)F)nnc2[C@H]2CC[C@H](Oc3ccccn3)CC2)cc1 [Example 31] | y
3) C[S@+]([O-])Cc1nnc([C@H]2CC[C@H](Oc3ccccn3)CC2)n1-c1ccc(Cl)cc1 (stereo in doubt) [Example 38] | n
4) Cc1nnc([C@H]2CC[C@H](Oc3ccccn3)CC2)n1-c1ccccc1 [Example 5] | y
5) Cc1nnc([C@H]2CC[C@H](Oc3ccccn3)CC2)n1-c1ncc(Cl)cc1F [Example 24] | n
6) COCc1nnc([C@H]2CC[C@H](Oc3ccccn3)CC2)n1-c1ccc(Cl)cc1 [Example 35] | y
7) Cc1ccc(O[C@H]2CC[C@H](c3nnc(C)n3-c3ccc(Cl)cc3)CC2)cn1 [Example 64] | y
8) C[S@@+]([O-])Cc1nnc(C2CCC(Oc3ccccn3)CC2)n1-c1ccc(Cl)cc1 (single isomer, unassigned) [Example 39] | n
9) Cc1nnc([C@H]2CC[C@H](Oc3ccccn3)CC2)n1-c1ccc(F)cc1 [Example 4] | y
10) Cc1cnc(O[C@H]2CC[C@H](c3nnc(C)n3-c3ccc(Cl)cc3)CC2)cn1 [Example 70] | y
11) Cc1cc(Cl)ccc1-n1cnnc1[C@H]1CC[C@H](Oc2ccccn2)CC1 [Example 53] | y
12) CSCCc1nnc([C@H]2CC[C@H](Oc3ccccn3)CC2)n1-c1ccc(Cl)cc1 [Example 46] | y
13) Cc1cc(Cl)ccc1-n1c(C)nnc1[C@H]1CC[C@H](Oc2ccccn2)CC1 [Example 13] | y
14) Cc1ccc(-n2c(C)nnc2[C@H]2CC[C@H](Oc3ccccn3)CC2)cc1F [Example 20] | y
15) Cc1ccc(-n2c(C)nnc2[C@H]2CC[C@H](Oc3cnc(C)cn3)CC2)cc1 [Example 71] | n
16) COCc1nnc([C@H]2CC[C@H](Oc3cnccn3)CC2)n1-c1ccc(Cl)cc1 [Example 69] | y
17) COCc1nnc([C@H]2CC[C@H](Oc3cnc(C)cn3)CC2)n1-c1ccc(Cl)cc1 [Example 72] | y
18) COc1cc(Cl)ccc1-n1c(C)nnc1[C@H]1CC[C@@H](Oc2ccccc2)CC1 [Example 2] | y
